Molecular target: T1, human CD137-Fc (human, biotin-labeled)
T1 construct: if 90 already holds the Fc, drop the second piece; also called biotin-labeled human CD137 fused to human IgG1 Fc fragment; biotin-human CD137-Fc; not shown: human IgG1 Fc fragment
Assay: bead ELISA on biotin-human CD137-Fc with 125 pmol/well free CD3e peptide as competitor;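 also: Streptavidin-coated magnetic beads in blocking buffer as the capture surface, well signal read as fluorescence 2 min after adding APS-5 substrate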
Catalogue of ELISA signal readings, one per entry.

Here's what some known entries look like.
>  <binder>
dBBDu183 (antibody, V domains shown, Human IgG1; light chain GLS3000 (kappa), before light chain maturation) VH: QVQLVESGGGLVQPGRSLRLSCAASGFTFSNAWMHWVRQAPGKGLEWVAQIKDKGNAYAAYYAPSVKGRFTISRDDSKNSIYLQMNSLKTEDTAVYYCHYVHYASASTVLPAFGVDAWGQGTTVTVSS VL: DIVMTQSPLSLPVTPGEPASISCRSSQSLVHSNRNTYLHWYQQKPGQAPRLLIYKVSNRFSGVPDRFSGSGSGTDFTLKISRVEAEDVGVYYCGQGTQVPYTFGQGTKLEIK

>  <ELISA signal>
2370

$$$$
>  <binder>
DXDU01_3#094 (antibody, V domains shown, Human IgG1; light chain GLS3000 (kappa); also called dBBDu121) VH: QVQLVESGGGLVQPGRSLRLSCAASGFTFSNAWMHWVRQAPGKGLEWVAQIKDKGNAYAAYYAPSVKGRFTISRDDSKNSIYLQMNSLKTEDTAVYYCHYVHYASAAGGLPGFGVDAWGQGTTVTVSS VL: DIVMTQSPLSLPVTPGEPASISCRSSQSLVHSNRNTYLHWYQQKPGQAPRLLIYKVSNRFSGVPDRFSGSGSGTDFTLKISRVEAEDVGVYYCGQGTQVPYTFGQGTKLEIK

>  <ELISA signal>
1830

$$$$
>  <binder>
DXDU01_3#072 (antibody, V domains shown, Human IgG1; light chain GLS3000 (kappa); also called dBBDu122) VH: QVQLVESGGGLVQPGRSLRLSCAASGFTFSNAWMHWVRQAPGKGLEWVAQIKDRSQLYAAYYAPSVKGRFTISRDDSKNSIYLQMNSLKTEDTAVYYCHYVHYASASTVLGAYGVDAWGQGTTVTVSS VL: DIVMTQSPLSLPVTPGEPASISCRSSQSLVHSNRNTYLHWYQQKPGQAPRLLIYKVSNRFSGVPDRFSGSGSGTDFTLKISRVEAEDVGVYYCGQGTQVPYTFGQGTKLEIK

>  <ELISA signal>
1880

$$$$

-- ask # ELISA signal lookup, item DADU01_3#002 (antibody, V domains shown, Human IgG1; light chain GLS3000 (kappa); also called dBBDu124) VH: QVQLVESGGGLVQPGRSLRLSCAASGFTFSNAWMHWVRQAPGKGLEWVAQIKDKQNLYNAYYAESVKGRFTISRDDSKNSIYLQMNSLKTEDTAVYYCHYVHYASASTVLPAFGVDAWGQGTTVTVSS VL: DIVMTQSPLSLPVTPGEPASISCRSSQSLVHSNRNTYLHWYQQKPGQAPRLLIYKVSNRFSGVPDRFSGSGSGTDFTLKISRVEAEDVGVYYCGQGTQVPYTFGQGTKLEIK
-- reply 2120

-- ask // next record dBBDu205 (antibody, V domains shown, Human IgG1; light chain GLS3000 (kappa)) VH: QVQLVESGGGLVQPGRSLRLSCAASGFTFSNAWMHWVRQAPGKGLEWVAQIKDRSQLYAAYYAPSVKGRFTISRDDSKNSIYLQMNSLKTEDTAVYYCHYVHYASASTVLPAFGVDAWGQGTTVTVSS VL: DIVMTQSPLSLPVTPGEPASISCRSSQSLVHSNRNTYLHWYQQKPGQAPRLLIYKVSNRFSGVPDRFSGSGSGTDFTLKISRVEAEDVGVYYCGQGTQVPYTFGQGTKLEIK
-- reply 2190
